Molecular target: T1, human BAFF (10056-HNCH, Sino biological) (human, UniProt Q9Y275 134-285)
T1 construct: Bought protein
Assay: competition ELISA: biotin-labeled BAFF to coated BAFF-R
value_kind: pIC50
Would you please state pIC50, meaning minus log10 of the concentration in mol/L, as a bare number?

Lab book: pIC50 of TACI-5 Fc (Fc fusion, two identical polypeptides) GGRSRVDQEERFPQGLWTGVAMRSCPEEQYWDPLLGTCMSCKTICNHQSQRTCAAFCRSLSCRKEQGKFYDHLLRDCISCASICGQHPKQCAYFCENKLRSPVNLPPELRKQRSGEVENNSDNSGDKTHTCPPCPAPEAEGAPSVFLFPPKPKDTLMISRTPEVTCVVVDVSHEDPEVKFNWYVDGVEVHNAKTKPREEQYNSTYRVVSVLTVLHQDWLNGKEYKCKVSNKALPSSIEKTISKAKGQPREPQVYTLPPSRDELTKNQVSLTCLVKGFYPSDIAVEWESNGQPENNYKTTPPVLDSDGSFFLYSKLTVDKSRWQQGNVFSCSVMHEALHNHYTQKSLSLSPGK noted as 7.60

Origin of values: patent US20240301031A1
